target: CYP3A4 (Homo sapiens, UniProt P08684); assay: Time-dependent inhibition of CYP3A4 in human liver microsomes assessed as residual enzyme activity using midazolam as substrate preincubated for 30 mins by fluorescence-based assay; details: probe midazolam; also: test concentration or dose not given here
Sequence (P08684 whole entry): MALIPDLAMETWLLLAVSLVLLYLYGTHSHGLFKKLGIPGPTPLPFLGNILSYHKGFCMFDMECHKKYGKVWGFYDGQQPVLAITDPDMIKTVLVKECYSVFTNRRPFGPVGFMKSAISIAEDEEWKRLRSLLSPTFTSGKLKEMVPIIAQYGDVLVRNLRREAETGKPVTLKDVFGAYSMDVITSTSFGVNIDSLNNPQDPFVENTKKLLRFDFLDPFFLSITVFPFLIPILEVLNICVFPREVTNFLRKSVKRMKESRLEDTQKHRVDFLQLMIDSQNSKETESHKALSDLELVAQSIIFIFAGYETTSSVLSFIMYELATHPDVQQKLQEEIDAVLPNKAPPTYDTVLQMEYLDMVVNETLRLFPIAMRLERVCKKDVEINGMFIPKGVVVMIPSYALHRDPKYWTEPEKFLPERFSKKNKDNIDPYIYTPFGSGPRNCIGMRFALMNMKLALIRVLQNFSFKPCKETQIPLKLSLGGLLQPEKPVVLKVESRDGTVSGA
value.kind: activity at 30 min (%)

| molecule | activity at 30 min [%] |
| --- | --- |
| CC(C)c1ccc2c(c1)C(C1CCCCC1)N(C(=O)CNC[C@@H](C)O)CC2 (stereo partly drawn) | 43 |

I = Cc1cccc2c1C(c1ccccc1)N(C(=O)CNC[C@@H](C)O)CC2 (stereo partly drawn)
II = CC(C)(C)[C@@H](CO)NCC(=O)N1CCc2ccccc2C1C1CCCCC1 (stereo partly drawn)
Param metric = activity at 30 min; output whichever of I , II has the minimum value. Lab log: write the label of the selected item as the result.
II
(II: 33%, I: 89%)

====

biological target: CYP3A4 (Homo sapiens, UniProt P08684); assay: Time-dependent inhibition of CYP3A4 in human liver microsomes assessed as residual enzyme activity using midazolam as substrate preincubated for 30 mins by fluorescence-based assay; conditions: probe midazolam; also: test concentration or dose not given here
value.kind: activity at 30 min (%)

| compound | measurement.target | readout.value |
| --- | --- | --- |
| CCc1ccc2c(c1)C(C1CCCCC1)N(C(=O)CNC[C@@H](C)O)CC2 (some centres undefined) | CYP3A4 (Homo sapiens, UniProt P08684) | 65 |
| C[C@@H](O)CNCC(=O)N1CCc2ccccc2[C@@H]1c1ccccc1 | CYP3A4 (Homo sapiens, UniProt P08684) | 94 |
| COc1ccc2c(c1)CCN(C(=O)CNC[C@@H](C)O)C2C1CCCCC1 (some centres undefined) | CYP3A4 (Homo sapiens, UniProt P08684) | 97 |
| COc1ccc2c(c1)C(C1CCCCC1)N(C(=O)CNC[C@@H](C)O)CC2 (some centres undefined) | CYP3A4 (Homo sapiens, UniProt P08684) | 83 |

// data source = ChEMBL document CHEMBL3600316
